Readings of IC50 for the listed compounds
Target: LZK (Homo sapiens, UniProt O43283)
Construct: 10 nM LZK, catalytic domain, Carna Biosiences in assay buffer; purchased Carna Biosciences ('Carna Biosiences' [sic])
Sequence (O43283 168-409 limits assumed): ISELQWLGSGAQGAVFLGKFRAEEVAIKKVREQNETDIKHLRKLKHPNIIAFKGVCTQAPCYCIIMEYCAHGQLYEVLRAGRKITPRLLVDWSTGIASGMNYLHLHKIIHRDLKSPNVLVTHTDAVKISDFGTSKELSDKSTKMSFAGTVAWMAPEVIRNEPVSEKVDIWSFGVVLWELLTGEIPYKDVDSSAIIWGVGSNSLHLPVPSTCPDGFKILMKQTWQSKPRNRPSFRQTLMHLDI
Test: LZK biochemical assay (TR-FRET, MKK7 phosphorylation)
# output: bare number, implied unit nM

Below are worked cases with known answers.
I am curious: what IC50 value has been reported for Nc1nc2c(-c3cnn(CC4CC4(F)F)c3)cc(-c3cnn(Cc4ccccc4)c3)cn2n1 (racemic) ?
39

I am curious: what IC50 value has been reported for CC(C)C(c1ccc(C(F)(F)F)nc1)n1cc(-c2cc(-c3ccc(C4CC(F)(F)C4)nc3)n3nc(N)nc3c2)cn1 (racemic) [II-73] ?
44

I am curious: what IC50 value has been reported for CCc1cnc(-c2cc(-c3cnn(Cc4ccccc4)c3)cc3nc(N)nn23)cn1 ?
530

I am curious: what IC50 value has been reported for Nc1nc2c(-c3ccc(=O)n(CC(F)F)c3)cc(-c3cnn(C(c4ccc(C(F)(F)F)nc4)C4CCOCC4)c3)cn2n1 (stereo not shown) [II-156] ?
3.3

I am curious: what IC50 value has been reported for Nc1nc2cc(-c3cnn(C(c4ccc(C(F)F)nc4)C4CCOCC4)c3)cc(-c3ccc(C(F)(F)F)nc3)n2n1 (racemic) [II-76] ?
16

***
I am curious: what IC50 value has been reported for CCC(c1ccc(C(F)(F)F)nc1)n1cc(-c2cc(-c3cccc(C(C)(C)O)c3)c3nc(N)nn3c2)cn1 (single isomer, unassigned) [II-8] ?
7.9

I am curious: what IC50 value has been reported for Nc1nc2c(-c3cnn(CC(F)(F)F)c3)cc(-c3cnn(C(c4ccc(C(F)(F)F)nc4)C4CCOCC4)c3)cn2n1 (racemic) [II-117] ?
29

----------
target: LZK (Homo sapiens); construct: 10 nM LZK, catalytic domain, Carna Biosiences in assay buffer; purchased Carna Biosciences ('Carna Biosiences' [sic]); experiment: LZK biochemical assay (TR-FRET, MKK7 phosphorylation)
Please use Criterion met for IC50 under 0.01 µM and Criterion not met for everything else, ties included.

Please check: IC50 for CC(C)C(c1ccc(C(F)(F)F)nc1)n1cc(-c2cc(-c3ccc(C4(O)CCC4)nc3)n3nc(N)nc3c2)cn1 (single isomer, unassigned) [II-82] , strictly under 0.01 µM or not?
Criterion not met

Please check: IC50 for Nc1nc2cc(-c3cnn(Cc4ccccc4)c3)cc(-c3ccc(C4CC4)nc3)n2n1 [II-47] , strictly under 0.01 µM or not?
Criterion not met

Please check: IC50 for CCC(c1ccc(C(F)(F)F)nc1)n1cc(-c2cc(-c3cccc(C(C)(C)O)c3)c3nc(N)nn3c2)cn1 (single isomer, unassigned) [II-9] , strictly under 0.01 µM or not?
Criterion met

Please check: IC50 for Nc1nc2c(-c3cnn(CC(F)(F)F)c3)cc(-c3cnn(C(c4ccc(C(F)(F)F)nc4)C4CCOCC4)c3)cn2n1 (single isomer, unassigned) [II-119] , strictly under 0.01 µM or not?
Criterion not met

Please check: IC50 for Nc1nc2c(-c3ccc(=O)n(CC(F)(F)F)c3)cc(-c3cnn([C@H](c4ccc(C(F)(F)F)nc4)C4CCOCC4)c3)cn2n1 [II-162] , strictly under 0.01 µM or not?
Criterion met

----------
molecular target: LZK (Homo sapiens); construct: 10 nM LZK, catalytic domain, Carna Biosiences in assay buffer; purchased Carna Biosciences ('Carna Biosiences' [sic]); assay: LZK biochemical assay (TR-FRET, MKK7 phosphorylation); conditions: LZK catalytic domain, MKK7 substrate, 15 μM ATP
Readings of IC50 for the listed compounds
# output: bare number, implied unit nM

Below are worked cases with known answers.
Please state recorded IC50 (tested on LZK (Homo sapiens)) of CCC(c1ccc(N2CCOCC2)cc1)n1cc(-c2cc(C(=O)N[C@@H](C)CC)c3nc(N)nn3c2)cn1 (mixture of isomers) [Example I-47]
40

Please state recorded IC50 (tested on LZK (Homo sapiens)) of CCC(c1ccc(OC(F)(F)F)nc1)n1cc(-c2cc(C(=O)N[C@@H](C)CO)c3nc(N)nn3c2)cn1 (single isomer, unassigned) [Example I-159]
30

Please state recorded IC50 (tested on LZK (Homo sapiens)) of CC[C@H](C)NC(=O)c1cc(-c2cnn(C3CCOc4ccccc43)c2)cc2nc(N)nn12 (single isomer, unassigned) [Example I-18]
6

Please state recorded IC50 (tested on LZK (Homo sapiens)) of CCC(c1ccc(OCC(F)(F)F)nc1)n1cc(-c2cc(C(=O)N[C@@H](C)CC)n3nc(N)nc3c2)cn1 (single isomer, unassigned) [Example I-115]
20

Please state recorded IC50 (tested on LZK (Homo sapiens)) of CCC(c1cncc(Cl)c1)n1cc(-c2cc(C(=O)N[C@@H](C)CC)c3nc(N)nn3c2)cn1 (single isomer, unassigned) [Example I-59]
58

Here is the next item to consider.
Please state recorded IC50 (tested on LZK (Homo sapiens)) of CC(CF)NC(=O)c1cc(-c2cnn(Cc3cccc4cn[nH]c34)c2)cn2nc(N)nc12 (racemic) [Example I-138]
190

----------
Biological target: DLK (Homo sapiens, UniProt Q12852)
Construct: 10 nM DLK, catalytic domain, Carna Biosiences; purchased Carna Biosciences ('Carna Biosiences' [sic])
Sequence (Q12852 125-366 limits assumed): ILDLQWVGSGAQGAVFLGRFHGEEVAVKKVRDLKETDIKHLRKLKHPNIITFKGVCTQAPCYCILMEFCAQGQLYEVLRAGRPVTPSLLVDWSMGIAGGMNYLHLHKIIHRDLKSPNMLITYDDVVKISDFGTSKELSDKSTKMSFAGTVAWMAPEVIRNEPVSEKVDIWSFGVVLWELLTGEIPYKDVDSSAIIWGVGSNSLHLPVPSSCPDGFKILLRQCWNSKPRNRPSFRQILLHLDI
Experiment: DLK biochemical assay (TR-FRET, MKK7 phosphorylation)
Description: DLK assay is a biochemical assay format designed to screen for inhibitors of DLK. Enzymatic activity of DLK is measured by monitoring phosphorylation of the physiological substrate MKK7 (MAP2K7, Dual specificity mitogen-activated protein kinase kinase 7). Phosphorylation is detected by a TR-FRET system whereby His-tagged MKK7 is labeled by a XL665-labeled anti-His antibody (FRET acceptor, emission 665 nm). […]
test.readout: IC50 (nM)
# output: bare number, implied unit nM

Below are worked cases with known answers.
I am curious: what IC50 value has been reported for Nc1nc2c(-c3cn(CC(F)(F)F)c(=O)cn3)cc(-c3cnn(C(c4ccc(C(F)(F)F)nc4)C4CCOCC4)c3)cn2n1 (single isomer, unassigned) [II-167] ?
1.3

I am curious: what IC50 value has been reported for Nc1nc2cc(-c3cnn(C(c4ccc(C(F)(F)F)nc4)C4CCOCC4)c3)cc(-c3ccnc(C(F)(F)F)c3)n2n1 (single isomer, unassigned) [II-36] ?
6.3

I am curious: what IC50 value has been reported for Nc1nc2c(-c3ccn(CC(F)(F)F)c(=O)c3)cc(-c3cnn(C(c4ccc(C(F)(F)F)nc4)C4CCOCC4)c3)cn2n1 (single isomer, unassigned) [II-177] ?
10

I am curious: what IC50 value has been reported for CN(C)c1cccc(-c2cc(-c3cnn(C(c4ccc(C(F)(F)F)nc4)C4CCOCC4)c3)cn3nc(N)nc23)c1 (single isomer, unassigned) [II-24] ?
0.5

I am curious: what IC50 value has been reported for CCC(c1ccc(C(F)(F)F)cc1)n1cc(-c2cc(-c3cnn(CC(F)(F)F)c3)n3nc(N)nc3c2)cn1 (single isomer, unassigned) [II-131] ?
25

Here is the next item to consider.
I am curious: what IC50 value has been reported for Nc1nc2c(-c3cccc(S(=O)(=O)C(F)(F)F)c3)cc(-c3cnn(C(c4ccc(C(F)(F)F)nc4)C4CCOCC4)c3)cn2n1 (single isomer, unassigned) [II-20] ?
71

----------
Molecular target: LZK (Homo sapiens)
Construct: 10 nM LZK, catalytic domain, Carna Biosiences in assay buffer; purchased Carna Biosciences ('Carna Biosiences' [sic])
Sequence (O43283 168-409 limits assumed): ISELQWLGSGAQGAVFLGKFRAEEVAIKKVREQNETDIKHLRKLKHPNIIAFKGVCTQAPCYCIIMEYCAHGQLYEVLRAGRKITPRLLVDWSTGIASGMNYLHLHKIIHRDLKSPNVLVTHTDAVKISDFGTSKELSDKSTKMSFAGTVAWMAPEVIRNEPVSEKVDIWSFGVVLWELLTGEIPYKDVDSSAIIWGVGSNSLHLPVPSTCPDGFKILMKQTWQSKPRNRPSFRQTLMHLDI
Test: LZK biochemical assay (TR-FRET, MKK7 phosphorylation)
Readings of IC50 for the listed compounds
# output: bare number, implied unit nM

I am curious: what IC50 value has been reported for Nc1nc2cc(-c3cnn(Cc4ccccc4)c3)cc(-c3cnn(C(F)F)c3)n2n1 [II-121] ?
150

I am curious: what IC50 value has been reported for CC(C)C(c1ccc(C(F)F)nc1)n1cc(-c2cc(-c3ccc(C(F)(F)F)nc3)n3nc(N)nc3c2)cn1 (single isomer, unassigned) [II-66] ?
43

I am curious: what IC50 value has been reported for CCC(c1ccc(C(F)(F)F)nc1)n1cc(-c2cc(-c3ccnc(OC(F)F)c3)c3nc(N)nn3c2)cn1 (single isomer, unassigned) [II-26] ?
150

I am curious: what IC50 value has been reported for CCS(=O)(=O)c1cccc(-c2cc(-c3cnn(C(c4ccc(C(F)(F)F)nc4)C4CCOCC4)c3)cn3nc(N)nc23)c1 (single isomer, unassigned) [II-18] ?
1.5

I am curious: what IC50 value has been reported for Nc1nc2cc(-c3cnn(C(c4ccc(C(F)(F)F)nc4)C4CCOCC4)c3)cc(-c3cnn(CC(F)(F)F)c3)n2n1 (single isomer, unassigned) [II-151] ?
11

I am curious: what IC50 value has been reported for Nc1nc2cc(-c3cnn(C(c4ccc(C(F)(F)F)nc4)C4CCOCC4)c3)cc(-c3ccnc(C(F)(F)F)c3)n2n1 (single isomer, unassigned) [II-36] ?
7.9
